compounds and their reported half-life at 1 µM
# ASSAY NOTES: Metabolic stability experiment of mouse liver microsomes
# Type: in vitro ADME
# Protocol: PB solution (100 mM), MgCl2 solution (300 mM), NADPH solution (2.04 mM), and mouse liver microsome (SHQY catalog number: M1000, batch number: 2110330) solution (1.00 mg/mL) were prepared respectively. […] Then, 100 µL of mouse liver microsome solution was added to a 96-well sample plate. […] The supernatant was aspirated, diluted with deionized water at the corresponding ratio, and analyzed by LC-MS/MS. […] The half-life (T1/2) of the compound was then calculated using Excel. […]
READOUT KIND: half-life at 1 µM (h)

# COMPOUND, NUMERIC READOUT
measured = [
    ("COc1cc(F)cc(F)c1C(O)CCC[C@@H](C)[C@H]1CC[C@H]2[C@H]3[C@H](CC[C@]12C)[C@@]1(C)CC[C@H](O)[C@H](O)[C@@H]1CC3(F)F (some centres unmarked)", 4.17),
    ("COc1cccc([C@H](O)CCC[C@@H](C)[C@H]2CC[C@H]3[C@H]4[C@H](CC[C@]23C)[C@@]2(C)CC[C@H](O)[C@H](O)[C@@H]2CC4(F)F)c1OC", 1.05),
    ("COc1cccc(C(O)CCC[C@@H](C)[C@H]2CC[C@H]3[C@H]4[C@H](CC[C@]23C)[C@@]2(C)CC[C@H](O)[C@H](O)[C@@H]2CC4(F)F)c1 (some centres unmarked)", 1.95),
    ("COc1c(F)cccc1C(O)CCC[C@@H](C)[C@H]1CC[C@H]2[C@H]3[C@H](CC[C@]12C)[C@@]1(C)CC[C@H](O)[C@H](O)[C@@H]1CC3(F)F (some centres unmarked)", 2.6),
    ("COc1nccc(F)c1C(O)CCC[C@@H](C)[C@H]1CC[C@H]2[C@H]3[C@H](CC[C@]12C)[C@@]1(C)CC[C@H](O)[C@H](O)[C@@H]1CC3(F)F (some centres unmarked)", 1.79),
]
